The reported numbers originate from paper PMC9490041.

# Ki annotations
Target: PSG G322A (PSD-95)
Experiment: FP displacement (competition) of FITC-15 AA CRIPT by library peptide, IC50 and Ki
Conditions: read-out: Ki (µM), PSG G322A; FP displacement of FITC-15 AA CRIPT probe by PSD library peptide; protein PSG G322A
Use µM as the unit, but write only the number.

1. CC[C@H](C)[C@H](NC(=O)[C@H](CC(N)=O)NC(=O)CNC(=O)CNC(=O)[C@H](CO)NC(=O)[C@H](Cc1ccc(O)cc1)NC(=O)[C@H](CCC(=O)O)NC(=O)[C@@H]1CCCN1C(=O)[C@H](Cc1ccc(O)cc1)NC(C)=O)C(=O)N[C@H](C(=O)N[C@@H](CCCNC(=N)N)C(=O)N[C@H](C(=O)N[C@@H](CO)C(=O)N[C@@H](C)C(=O)N[C@@H](CC(C)C)C(=O)O)C(C)C)C(C)C [KCND2] | 244
2. CC(=O)N[C@@H](Cc1ccc(O)cc1)C(=O)N[C@@H](CC(=O)O)C(=O)N[C@@H](CO)C(=O)N[C@H](C(=O)N[C@@H](CCC(=O)O)C(=O)N[C@@H](CCC(N)=O)C(=O)N[C@@H](CO)C(=O)N[C@@H](CC(=O)O)C(=O)N[C@H](C(=O)N[C@@H](CCCNC(=N)N)C(=O)N[C@@H](Cc1ccccc1)C(=O)N[C@@H](CO)C(=O)N[C@@H](CO)C(=O)N[C@@H](C)C(=O)N[C@H](C(=O)O)C(C)C)C(C)C)[C@@H](C)O [GPER1] | 82
3. CC(=O)N[C@@H](Cc1ccc(O)cc1)C(=O)N[C@@H](CCCNC(=N)N)C(=O)N[C@@H](CCC(N)=O)C(=O)N1CCC[C@H]1C(=O)N[C@@H](CC(C)C)C(=O)N1CCC[C@H]1C(=O)N[C@@H](CC(=O)O)C(=O)N[C@@H](CO)C(=O)N[C@@H](CC(N)=O)C(=O)N1CCC[C@H]1C(=O)N[C@@H](CCC(=O)O)C(=O)N[C@@H](CCC(=O)O)C(=O)N[C@@H](CO)C(=O)N[C@@H](CO)C(=O)N[C@H](C(=O)O)C(C)C [SEM4C] | 68
4. CC(=O)N[C@@H](Cc1ccc(O)cc1)C(=O)N[C@@H](CCCCN)C(=O)N[C@@H](CCCCN)C(=O)N[C@H](C(=O)N[C@@H](CC(C)C)C(=O)N[C@@H](CC(=O)O)C(=O)N[C@H](C(=O)N[C@@H](CCCCN)C(=O)N[C@@H](CC(N)=O)C(=O)N[C@@H](Cc1ccc(O)cc1)C(=O)N[C@@H](CCCCN)C(=O)N[C@@H](CCC(N)=O)C(=O)N[C@H](C(=O)N[C@@H](CO)C(=O)N[C@H](C(=O)O)C(C)C)[C@@H](C)O)[C@@H](C)O)C(C)C [CRIPT] | 0.496

Next compound, please.
Query: Consider the compound shown here: CC(=O)N[C@@H](Cc1ccc(O)cc1)C(=O)N[C@@H](Cc1c[nH]cn1)C(=O)N1CCC[C@H]1C(=O)N[C@@H](Cc1c[nH]cn1)C(=O)N1CCC[C@H]1C(=O)N[C@@H](Cc1c[nH]cn1)C(=O)N1CCC[C@H]1C(=O)N[C@@H](Cc1c[nH]cn1)C(=O)N[C@@H](CO)C(=O)N[C@@H](Cc1c[nH]cn1)C(=O)N[C@@H](CO)C(=O)N[C@H](C(=O)N[C@H](C(=O)N[C@@H](CCCNC(=N)N)C(=O)N[C@H](C(=O)O)C(C)C)[C@@H](C)O)[C@@H](C)O [NLGN1] What is its recorded Ki?
Reply: 24
